- Test system: P. falciparum stage V gametocytes
- Set-up: BacTiter-Glo ATP luminescence viability of purified stage V gametocytes in 384-well plates, per cent inhibition versus DMSO
- Setup conditions: 48 h, 5 µM; inhibitor
In all, about 13,000 compounds went through this assay and about 3,200 (25%) showed an effect of 50% or more. Some of the results follow.
Outcome label depends on % Inhibition relative to 40%: at/above gives 1.0, below gives 0.0.

Compound: O=C(NCCCCN1CCC(c2c[nH]c3ccc(-c4ccccc4)cc23)CC1)c1ccc(-c2ccccc2)cc1
Group label: 1.0
--
Compound: CCc1cn2c3c(cc(C(=O)N[C@@H](Cc4ccccc4)[C@H](O)CNC4CCOCC4)cc13)N(C(C)C)S(=O)(=O)CC2
Group label: 0.0
--
Compound: CCc1cn2c3c(cc(C(=O)N[C@@H](Cc4ccccc4)[C@H](O)CNC4CCCCC4)cc13)N(C)S(=O)(=O)C2
Group label: 0.0
--
Compound: Nc1nc(N)c2c(ccc3c2cnn3Cc2cccnc2)n1
Group label: 0.0
--
Compound: O=C(/C=C/c1ccc(Cl)c(Cl)c1)NCCCCCN1CCC(NC(=O)Nc2ccc(Oc3ccccc3)cc2)C1 (centres unmarked)
Group label: 0.0
--
Compound: CS(=O)(=O)NCCCNCc1cccc(-c2ccc(-c3nc4ccc(C(F)(F)F)cc4[nH]3)cc2)c1
Group label: 0.0
--
Compound: COc1ccc(-c2csc3ncnc(Cl)c23)cc1
Group label: 1.0

---

- Test system: P. falciparum stage V gametocytes
- Set-up: BacTiter-Glo ATP luminescence viability of purified stage V gametocytes in 384-well plates, per cent inhibition versus DMSO
- Setup conditions: 48 h, 5 µM; inhibitor
About 3,200 (25%) of roughly 13,000 compounds showed an effect of 50% or more. The list shows a part of the results.
Outcome label depends on % Inhibition relative to 50%: at/above gives 1 (yes), below gives 0 (no).

Compound: O=C(Nc1cccc(C(F)(F)F)c1)NC1CCN(c2ccnc3ccccc23)CC1
Group label: 0 (no)
--
Compound: O=C(COc1ccccc1)NC1CCN(c2ccnc3cc(Cl)ccc23)C1 (stereo not drawn)
Group label: 0 (no)
--
Compound: O=C(NC1CC1)c1cnc(N2CCC(Cc3ccccc3)CC2)c(Cl)c1
Group label: 0 (no)
--
Compound: Cc1cccc2[nH]c(-c3ccc(-c4ccc(CNCc5ccc(CN)cc5)cc4)cc3)nc12
Group label: 1 (yes)
--
Compound: COc1cc(C)cc(CN2CCC(Cc3ccccc3)CC2)c1O
Group label: 0 (no)
--
Compound: COc1ccc(Cn2c(N3CCN(S(=O)(=O)c4ccc(OC)cc4)CC3)nc3c2c(=O)n(CC2CC2)c(=O)n3CC2CC2)cc1
Group label: 0 (no)
--
Compound: Cc1cccc2[nH]c(-c3ccc(-c4cccc(CNCCc5ccncc5)c4)cc3)nc12
Group label: 0 (no)
--
Compound: O=c1cc(NCCCNCc2cc(Br)ccc2F)[nH]c2ccccc12
Group label: 0 (no)
--
Compound: O=C(Nc1ccccc1Br)N[C@@H]1CCN(c2ccnc3ccccc23)C1
Group label: 1 (yes)
--
Compound: CCCN1CCN(CCCCNc2c3ccccc3nc3ccccc23)CC1
Group label: 1 (yes)
--
Compound: CC(C)(C)c1ccc(OCC(=O)NC2CCN(c3ccnc4cc(Cl)ccc34)C2)cc1 (stereo not drawn)
Group label: 1 (yes)
--
Compound: CNCCNCc1ccc(-c2ccc(-c3nc4c(C)cccc4[nH]3)cc2)cc1
Group label: 1 (yes)
--
Compound: CNCCNCc1cccc(-c2ccc(-c3nc4c(C)cccc4[nH]3)cc2)c1
Group label: 1 (yes)
--
Compound: CCCN1CCN(CCNc2c3ccccc3nc3ccccc23)CC1
Group label: 1 (yes)
--
Compound: COc1ccc(CN2CCCN(Cc3cccc(C(=O)Nc4ccc(C(C)(C)C)cc4)c3)CC2)cc1
Group label: 0 (no)
--
Compound: CC(C)CN1CCN(CCNc2c3ccccc3nc3ccccc23)CC1
Group label: 1 (yes)
--
Compound: COc1cccc(Nc2nc(NCCO)c3ccccc3n2)c1.Cl
Group label: 0 (no)
--
Compound: O=C(/C=C/c1ccc(Cl)c(Cl)c1)Nc1cccc(CN2CCC(c3c[nH]c4ccccc34)CC2)c1
Group label: 0 (no)
--
Compound: O=C(Nc1ccc(C(F)(F)F)cc1)NC1CCN(c2ccnc3ccccc23)CC1
Group label: 1 (yes)
--
Compound: O=C(Nc1ccc(C(F)(F)F)cc1)NC1CCN(c2ccnc3ccccc23)C1 (stereo not drawn)
Group label: 0 (no)
--
Compound: COc1cccc(Nc2nc(N)c3ccccc3n2)c1.Cl
Group label: 0 (no)

---

- Tested on: P. falciparum stage V gametocytes
- Parameters: BacTiter-Glo ATP luminescence viability of purified stage V gametocytes in 384-well plates, per cent inhibition versus DMSO
- Setup conditions: 48 h, 5 µM; inhibitor
Hit rate of the full screen: of about 13,000 compounds, about 3,200 (25%) showed an effect of 50% or more. The list shows a part of the results.
Outcome label depends on % Inhibition relative to 40%: at/above gives met, below gives not met.

Compound: Cc1cccc2nc(-c3ccc(-c4ccc(CN5CCC(N)C5)cc4)s3)[nH]c12.O=C(O)C(F)(F)F (stereo not drawn)
Group label: met
//
Compound: COc1ccc(CN(C)CCOc2ccc(NC(=O)c3cccc4c(=O)cc(-c5ccccc5)[nH]c34)cc2)cc1OC
Group label: not met
//
Compound: CCC(C)NC(=O)CN1CN(c2ccccc2)C2(CCN(C(=O)c3ccc4ccccc4c3)CC2)C1=O (stereo not drawn)
Group label: not met
//
Compound: Cc1cccc2nc(-c3ccc(-c4ccc(CN5CCCC(N)C5)cc4)s3)[nH]c12.O=C(O)C(F)(F)F (stereo not drawn)
Group label: met
//
Compound: CCOc1cc(C)ccc1C1CCN(CCCCNC(=O)c2ccc(-c3ccc(C(F)(F)F)cn3)cc2)CC1
Group label: not met
//
Compound: COc1cccc(C2CCN(CCN3CCC(CNC(=O)c4ccc(-c5ccc(C(F)(F)F)cc5)cc4)CC3)CC2)c1
Group label: met
//
Compound: COc1cccc(C2CCN(CCN3CCC(NC(=O)c4ccc(-c5ccc(C#N)cc5)cc4)CC3)CC2)c1
Group label: not met
//
Compound: COc1ccc(-c2cnc3[nH]cc(-c4ccc(C(=O)O)c(C)c4)c3c2)cn1
Group label: not met
//
Compound: CCN(CC)Cc1ccc(OC)c(-c2cc3c(-c4ccc(C(=O)O)c(C(C)C)c4)ccnc3[nH]2)c1
Group label: met
//
Compound: COc1cccc(OC)c1CN1CCC(N(C)CCCCCCCCN2CCC(OC(=O)Nc3ccccc3-c3ccccc3)CC2)CC1
Group label: met
//
Compound: COc1cccc(CN2CCC(C(=O)Nc3ccc(-c4nc5ccccc5[nH]4)cc3)CC2)c1
Group label: not met
//
Compound: COc1ccccc1CCN(C)CCN1CCC(NC(=O)c2ccc(-c3ccc(C(F)(F)F)cc3)cc2)CC1
Group label: met

---

- Test system: P. falciparum stage V gametocytes
- Set-up: BacTiter-Glo ATP luminescence viability of purified stage V gametocytes in 384-well plates, per cent inhibition versus DMSO
- Setup conditions: 48 h, 5 µM; inhibitor
Among all 13,000 compounds or so, about 3,200 (25%) showed an effect of 50% or more. The list shows a part of the results.
Measured endpoint: % Inhibition (%)

Molecule: CC(=O)Nc1ccc(CN(Cc2ccc(OC(C)(C)C)cc2)Cc2ccc3c(c2)OCCO3)cc1
Measured endpoint: % Inhibition
Observed value: -22.37

Molecule: COc1ccc(-c2ccc(CNC(=O)c3ccc(C#N)cc3)c(F)c2)cc1CN1CCCN(C)CC1
Measured endpoint: % Inhibition
Observed value: -37.75

Molecule: O=C(/C=C/c1ccc(Cl)c(Cl)c1)NCCCCCN1CCC(CCNC(=O)/C=C/c2ccccc2F)CC1
Measured endpoint: % Inhibition
Observed value: -17.66

Molecule: O=C(/C=C/c1ccc(Cl)c(Cl)c1)NCCCCCN1CCCC(CNC(=O)/C=C/c2ccccc2)C1 (stereo not shown)
Measured endpoint: % Inhibition
Observed value: 30.13

Where do the numbers come from? From paper PMC4552634.
